# Tested on: MS2 coat protein
# Assay Details: apparent KD of MS2 coat protein; designed switch direction (-1 OFF switch, 1 ON switch): -1; higher = weaker reporter binding
# Assay Conditions: input ligand: FMN 200 uM
Would you mind labelling by apparent KD of MS2 coat protein? At or over 100 nM is MET, under is NOT MET.

AUAAUGUCAGGAUAUCAGACGUACAGCUGCGGCUGUACGUCUGAGAAGGGACAUGAGGAUCACCCAUGUGAUUA [E4/3-A3] (Eterna round: R97, puzzle: Exclusion 4)    MET
UGGUAAUCAGUUAGGAUAUCAUCCGGCGUUGUCGGUGAGAAGGAACAUGAGGAUCACCCAUGUAUCGAUUUUAG [BmEX4 B.13] (Eterna round: R97, puzzle: Brourd's mod of Exclusion 4)    NOT MET

Q. Say whether GAAUGAGAGCAGGAUAUCUUAAAAAUGUAUCAAAGAGAAGGGCUCACAUGAGGAUCACCCAUGUGGUCCUAGAU [jl-ex6-4.67 jandersonlee mod] (Eterna round: R97, puzzle: Exclusion 6) shows apparent KD of MS2 coat protein of 100 nM or more.
A. MET

Q. Is reported apparent KD of MS2 coat protein greater than or equal to 100 nM here: AGCGAGGAGACAGGAUAUGAGAAUAGAUAGAACUCAGAAGGGUCACAUGAGGAUCACCCAUGUAAAGUCUUGAGGCUGCGUGGU [Prohibition 8 - Jieux - Exclusion NG 1] (Eterna round: R96, puzzle: Exclusion NG 1)
A. MET

Q. Say whether GGGCCCGGUGUGAGGAUAUUUGAAGUGAAAGCUUCGGAGAAGGCACAUGAGGAUCACCCAUGUAAGCCGGGCCC [-35.9, -33.8 kcal, A 26%, 3bis-0] (Eterna round: R97, puzzle: Brourd's mod of Exclusion 4) shows apparent KD of MS2 coat protein of 100 nM or more.
A. NOT MET

###

# Tested on: MS2 coat protein
# Assay Details: apparent KD of MS2 coat protein; designed switch direction (-1 OFF switch, 1 ON switch): -1; higher = weaker reporter binding
# Assay Conditions: Eterna round: R95; input ligand: none
Reported Endpoint: apparent KD of MS2 coat protein (nM)
Please reply with the bare figure in nM and do not write the unit itself.

AAAACGUCAGGAUAUACGAAAUAAAAUAAAAUAAAAUAAAAGUAGAAGGGACAUGAGGAUCACCCAUGUAAUAA [Exclusion 4 #1] (puzzle: Exclusion 4)    36.2
GAAAAGGUAGGAUAUACGAAAAAAUAGGGUAGAAAAAAAACACAUGAGGAUCACCCAUGUAGAAGGACCAAAAG [salish99_ex2_r3_081] (puzzle: Exclusion 2)    27.5

Lab note: next sequence to report on.
Q. # return recorded apparent KD of MS2 coat protein for entry GAAAAGGUAGGAUAUACGAAAAAUAAGGGUAGAAAAAAAACACAUGAGGAUCACCCAUGUAGAAGGACCAAAAG [salish99_ex2_r3_082] (puzzle: Exclusion 2)
A. 33

###

apparent KD of MS2 coat protein values, listed per item
# Tested on: MS2 coat protein
# Assay Details: apparent KD of MS2 coat protein; designed switch direction (-1 OFF switch, 1 ON switch): 1; higher = weaker reporter binding
# Assay Conditions: input ligand: microRNA oligo, concentration not stated
I only need the number, in µM, no unit after it.

Recorded apparent KD of MS2 coat protein, per entry:
AAACAUGAGCGAGGAUAUGCGGAGGAUCACCCUGUAGAAGGCGCAUGUAAAACAACAUGAGGAUCACCCAUGUCAUGUACAUAA (Eterna round: R96, puzzle: Same State NG 1)    0.144
CACAAUCUAUCUGAGGAUAUCAUGAAAAAAACAUGAGGAUCACCCAUGUGCAGGAAAACUGCAUAUGAGAAGGCAGAUAGAUUGU [salish99_SS2_r3_015] (Eterna round: R96, puzzle: Same State 2)    0.514

Q. Check the records and state apparent KD of MS2 coat protein for CUAUCUACAGGUUGCAGUGCUCGUCUUAUACAUGAGGAUCACCCAUGUUAUAGCCCGGUGCUUGCGCUGGGCUGAUU [JL ViennaUCT Tearor mod 2] (Eterna round: R96, puzzle: Sensor for hsa-mir-208a)
A. 0.0164

Q. Please look at this sequence and report its apparent KD of MS2 coat protein: AUAGUUUCCGAAGGAUAUGAUGAGGAUCACCCAUCAGAAGGUUGGCUAUUGGGUGGACAUGAGGAUCACCCAUGUCUUUCUGUU (Eterna round: R96, puzzle: Same State NG 1)
A. 0.0391

Q. Please list apparent KD of MS2 coat protein recorded for the sequence UAUUUAAUCGUAGGAUAUAGAAUGAAAUUUGUACUAGAAGGACGUUACAUGAGGAUCACCCAUGUGGUAAGUGGGACAUAGUUU [JR_SSNG1_Sub036] (Eterna round: R96, puzzle: Same State NG 1)
A. 0.0845

###

# Tested on: MS2 coat protein
# Assay Details: apparent KD of MS2 coat protein; higher = weaker reporter binding
# Assay Conditions: Eterna round: R107; input ligand: theophylline 20 uM
Entries and their apparent KD of MS2 coat protein values follow.
The reply should contain only the number, in nM.

Consider the following illustrative entries.
CGGACAUGAGGAUCACCCAUGUCGUCGACGCGAGGACCGGUACGGCCGCCACUCGCAUGCCAAUGAGCGCAUGCGGCCUGGGUAU [Exclusion Tryp A GF5]    29
UCGGGCAGAGCGGCCGCCACUGUUUGGCAUGCGGAUGAAGGAACAUGAGGAUCACCCAUGUAGAUUAGGACCGGGCUAGCGGAGA [sscsmullin]    42.1

Now for a further sequence.
Q. Under MS2 coat protein: report apparent KD of MS2 coat protein of CGUAAACAUGAGGAUCACCCAUGUGAUGAUACCAGCACGAUUAACUGCCCUUGGCAGCAUGUAUUGUACGACUUAUUGCCCAUCG [theeternabot_sameState_MS2_Theo_A_15] .
A. 23.3

###

Measured apparent KD of MS2 coat protein, listed per entry.
# System: MS2 coat protein
# Assay Details: apparent KD of MS2 coat protein; designed switch direction (-1 OFF switch, 1 ON switch): -1; higher = weaker reporter binding
# Assay Conditions: input ligand: none
Give the number; nM is assumed, so skip it.

GCCCUCGCUGAGGAUAUUAUCUGGCUCGACCGAUAAGAAGGCAGUACAUGAGGAUCACCCAUGUGGUUCGUUCG [Polaris46] (Eterna round: R97, puzzle: Exclusion 6)    41

// moving on: another record for apparent KD of MS2 coat protein
Q. Could you please provide reported apparent KD of MS2 coat protein for AAGAACGUACAAGGAUAUCUCCACCACAACGGCAGAGAAGGUGUACAUGAGGAUCACCCAUGUGACCGAAGGCCCUUAUGGGCC [Xeerergeza] (Eterna round: R96, puzzle: Exclusion NG 1) ? Thanks!
A. 29.6

###

# Test system: MS2 coat protein
# Assay Details: apparent KD of MS2 coat protein; higher = weaker reporter binding
# Assay Conditions: Eterna round: R107; input ligand: theophylline 20 uM
Reported Endpoint: apparent KD of MS2 coat protein (nM)
Supply the numeric figure in nM, leaving out any unit text.

For orientation, consider the following solved cases.
GGUAACUCUACGGCCGCCACUGAACAUGAGGAUCACCCAUGUAAUGUUCAGAUUUUUUUUUUUUACAGGACCGGGUAGUGUUACC [Tryptophan B 4]    276
UAAUAAAUAAAUCCAAGGUGAAGGUCAGAUACCAGCCAGAUAACUGGCCCUUGGCAGCUGAAUAAACUUGAGGAUCACCCAGGUA [TheoAS 27 #OpenEnded #MS2Late #AlternativeMS2]    135
ACAUGAGGAUCACCCAUGUUUGAUGUUCCUCGAGGACCGGUACGGCCGCCACUCGAACGAGUGGCACGCGAGUGCGCACUCGCGU [aTa]    19.9
CGACACCAGGCAAUCCAUCACCCGGCUGAUACCAGCUCUUUUGGAAGCCCUUGGCAGCAGAGAACAUGAGGAUCACCCAUGUCAG [theeternabot_exclusion_MS2_Theo_A_18]    16.7
UACAUGAGGAUCACCCAUGUAUAGAGGGAUACCAGUGUCAGUGAGCACCCUUGGCAGCCCGCGAACAAUGGGUGCGCUAUAUAGU [#20 Exclusion-TheophyllineA]    46.8
AUACAUGAGGAUCACCCAUGUCUUACGGAAGGAGCGAUCAAGAGAUCAGGUAGGUCGCCGUACAUGAGGAUCACCCAUGUAGGCG [EAA NP+V+V2 #9 DOUBLE]    33.4
ACAUGAGGAUCACCCAUGUGAUGGCGCGAUACCAGCUGAUCCCGUGGCCCUUGGCAGCGUCCGGUGUGGUCCGGCGGGUGGGACG [khkmullin]    31.7
AGUCCUCUGUACCCUGAUGCCCUCACUUUACGAGGACCGGUACGGCCGCCACUCGAAUCCCAACAUGAGGAUCACCCAUGUCGAC [theeternabot_exclusion_MS2_Trp_A_26]    40

Q. Given GUGUACAUGAGGAUCACCCAUGUCGAGUUACGAGGACCGGUACGGCCGCCACUCGGCGGCUCGACACGGAUAGCGGUGCGUUGCU [Exclusion - Tryptophan A] , respond with its apparent KD of MS2 coat protein.
A. 40.8

Q. Please indicate apparent KD of MS2 coat protein recorded for GGUGGCUGGAUUGAUACCAGCCACCACCGAUAGACCACAUGAGGAUCACCCAUGUUGGGUGGCCCUUGGCAGCAGUCCAGCUGCC [#1 Same State - Theophylline B Attempt #9 (HarryS)]
A. 649

Q. # return recorded apparent KD of MS2 coat protein for entry AACAUGAGGAUCACCCAUGUCUGAACUGAAGGAGCGCUAAACAAGGCAGGUAGGUCGCGGAAUUUUGUGUGCAUAUGCAUAUGGG [9.J]
A. 35.3

Q. Determine from records and report apparent KD of MS2 coat protein for AAUGGCCGUACCGGAAGGGUGAUCCUCAAACGAGGACCGGUACGGCCGCCACUCGAUAACAUGAGGAUCACCCAUGUAAUACAUA [whbob_X-Trypto_V2.0]
A. 405

Q. Give the measured apparent KD of MS2 coat protein for GCCUGGGAUACGGCCGCCACUACAUGAGGAUCACCCAUGUAAUAUUUAUUAGAAGAGAGGGUAUGUAGGACCGGGUAAGGAAGGC [e-trypB-0]
A. 24.9

Q. Supply recorded apparent KD of MS2 coat protein for ACAUGAGGAUCACCCAUGUAGUGGCACGAUACCAGCUGAUCCCGUGGCCCUUGGCAGCGUCCGGUGUGGUGCGCCGGGAUGGAGC [ZSZMULLIN] here.
A. 50.8

Q. Recall and state the measured apparent KD of MS2 coat protein for GCACCAGGUACGGAUACCAGCUAUAGGCCCUAUGGGCGACAUGAGGAUCACCCAUGUAAUGGCCCUUGGCAGCUGUACCUGGUGC [SSThB NP+V+V2 #10 +-Same Structure] .
A. 97.3

Q. Using the record for CAUGUGAAAAUAAGAAGAAGAAGAAUAAAUCGAGGACCGGUACGGCCGCCACUCGUCGAAUCACAUGAGGAUCACCCAUGUAGCC [Tryptofun] , state its measured apparent KD of MS2 coat protein.
A. 52.6
